study_target: Aspartyl aminopeptidase (Homo sapiens) (UniProt Q9ULA0)
assay_notes: hM18AAP inhibitors, dose response, selectivity assay for PFM18AAP inhibitor project, biochemical, QFRET, H-Glu-NHMec substrate, set 3 (AID 624174)
recorded_conditions: purified recombinant hM18AAP, H-Glu-NHMec fluorescence
measure_name: IC50

| compound | recorded_value |
| --- | --- |
| CC(Cc1ccc(O)c(O)c1)Nc1ccnc2ccccc12 (centres undefined) | 14.4 µM |
| Cc1cccc2c(NCCc3ccc(O)c(O)c3)ccnc12 | 12.7 µM |
| CC(C)(CNc1ccnc2ccccc12)c1ccc(O)c(O)c1 | 35 µM |
| Oc1cccc(CCNc2ccnc3ccccc23)c1O | 11.6 µM |

* * *

study_target: Aspartyl aminopeptidase (Homo sapiens) (UniProt Q9ULA0)
assay_notes: hM18AAP inhibitors, dose response, selectivity assay for PFM18AAP inhibitor project, biochemical, QFRET, H-Glu-NHMec substrate, set 3 (AID 624174)
recorded_conditions: purified recombinant hM18AAP, H-Glu-NHMec fluorescence

| compound | IC50 |
| --- | --- |
| CN(CCc1ccc(O)c(O)c1)c1ccnc2c(F)cccc12 | 7.92 µM |
| Oc1ccc(C2CCN(c3ccnc4ccccc34)C2)cc1O (configuration not stated) | 5.59 µM |
| CN(CCc1ccc(O)c(O)c1)c1ccnc2cc(Cl)ccc12 | 7.67 µM |
| Oc1ccc(CCCNc2c3c(nc4ccccc24)CCCC3)cc1O | 9.5 µM |
| Oc1ccc(C2CCN(c3ccnc4ccccc34)CC2)cc1O | 4.68 µM |
| CN(CCCc1ccc(O)c(O)c1)c1ccnc2ccccc12 | 9.65 µM |
| Cc1cc(N(C)CCc2ccc(O)c(O)c2)c2ccccc2n1 | 9.75 µM |
| CN(CCc1ccc(O)c(O)c1)c1ncnc2ccccc12 | 6.74 µM |
| Cc1cccc2c(N(C)CCc3ccc(O)c(O)c3)ccnc12 | 10.5 µM |
| Oc1ccc(CCNc2ccnc3c(F)cccc23)cc1O | 8.36 µM |
| Oc1ccc(C2CCCN(c3ccnc4ccccc34)C2)cc1O (configuration not stated) | 5.59 µM |
| Oc1ccc(CCNc2ccnc3cc(Cl)ccc23)cc1O | 13.6 µM |
